Tested on: Fusarium oxysporium f. sp. cucumeris
Type: cell-based
Details: read-out: Inhibition rate, Fc
measurement_kind: inhibition at 50 µg/mL (%)

[
  {
    "molecule": "O=C(Cn1ccc(=O)c2ccccc21)NN=Cc1ccc(F)cc1",
    "number": 16.3
  },
  {
    "molecule": "Cc1ccc(C=NNC(=O)Cn2ccc(=O)c3ccccc32)cc1",
    "number": 28.6
  },
  {
    "molecule": "O=C(Cn1ccc(=O)c2ccccc21)NN=Cc1cccs1",
    "number": 12.2
  },
  {
    "molecule": "O=C(Cn1ccc(=O)c2ccccc21)NN=Cc1ccccc1[N+](=O)[O-]",
    "number": 18.4
  },
  {
    "molecule": "O=C(Cn1ccc(=O)c2ccccc21)NN=Cc1ccc(Br)cc1",
    "number": 22.4
  },
  {
    "molecule": "O=C(Cn1ccc(=O)c2ccccc21)NN=Cc1ccc(C(F)(F)F)cc1",
    "number": 26.5
  },
  {
    "molecule": "CC(C)(C)c1ccc(C=NNC(=O)Cn2ccc(=O)c3ccccc32)cc1",
    "number": 10.2
  },
  {
    "molecule": "N#Cc1c(Cl)c(Cl)c(Cl)c(C#N)c1Cl [chlorothalonil, reference compound]",
    "number": 100
  },
  {
    "molecule": "O=C(Cn1ccc(=O)c2ccccc21)NN=Cc1ccco1",
    "number": 16.3
  }
]

---

System: Fusarium graminearum
Test: microbe, parasite or virus in culture
Format: cell-based
Settings: read-out: Inhibition rate, Fg
# inhibition at 50 µg/mL values compiled below

[
  {
    "compound": "O=C(Cn1ccc(=O)c2ccccc21)NN=Cc1ccccc1[N+](=O)[O-]",
    "target": "Fusarium graminearum",
    "inhibition at 50 µg/mL": "23.8%"
  },
  {
    "compound": "O=C(Cn1ccc(=O)c2ccccc21)NN=Cc1ccco1",
    "target": "Fusarium graminearum",
    "inhibition at 50 µg/mL": "14.3%"
  },
  {
    "compound": "COc1cccc(C=NNC(=O)Cn2ccc(=O)c3ccccc32)c1",
    "target": "Fusarium graminearum",
    "inhibition at 50 µg/mL": "38.1%"
  },
  {
    "compound": "CSc1ccc(C=NNC(=O)Cn2ccc(=O)c3ccccc32)cc1",
    "target": "Fusarium graminearum",
    "inhibition at 50 µg/mL": "2.4%"
  },
  {
    "compound": "COC(=O)Nc1nc2ccccc2[nH]1 [carbendazim, reference compound]",
    "target": "Fusarium graminearum",
    "inhibition at 50 µg/mL": "29%"
  },
  {
    "compound": "O=C(Cn1ccc(=O)c2ccccc21)NN=Cc1ccc(-n2cccn2)cc1",
    "target": "Fusarium graminearum",
    "inhibition at 50 µg/mL": "9.5%"
  },
  {
    "compound": "O=C(Cn1ccc(=O)c2ccccc21)NN=Cc1cscn1",
    "target": "Fusarium graminearum",
    "inhibition at 50 µg/mL": "2.4%"
  },
  {
    "compound": "O=C(Cn1ccc(=O)c2ccccc21)NN=Cc1ccc(Cl)cc1",
    "target": "Fusarium graminearum",
    "inhibition at 50 µg/mL": "2.4%"
  },
  {
    "compound": "O=C(Cn1ccc(=O)c2ccccc21)NN=Cc1coc2ccccc12",
    "target": "Fusarium graminearum",
    "inhibition at 50 µg/mL": "19%"
  }
]

---

Tested on: Fusarium graminearum
Assay: microbe, parasite or virus in culture
Assay type: cell-based
Conditions: read-out: Inhibition rate, Fg
Respond with criterion met for inhibition at 50 µg/mL values of 20% and above, criterion not met for values below.

[
  {
    "structure_as_smiles": "O=C(Cn1ccc(=O)c2ccccc21)NN=Cc1cccnc1",
    "target": "Fusarium graminearum",
    "class_assignment": "criterion met"
  },
  {
    "structure_as_smiles": "CC(C)(C)c1ccc(C=NNC(=O)Cn2ccc(=O)c3ccccc32)cc1",
    "target": "Fusarium graminearum",
    "class_assignment": "criterion not met"
  },
  {
    "structure_as_smiles": "CN(C)c1ccc(C=NNC(=O)Cn2ccc(=O)c3ccccc32)cc1",
    "target": "Fusarium graminearum",
    "class_assignment": "criterion met"
  },
  {
    "structure_as_smiles": "O=C(Cn1ccc(=O)c2ccccc21)NN=Cc1ccc(-c2ccccc2)cc1",
    "target": "Fusarium graminearum",
    "class_assignment": "criterion not met"
  },
  {
    "structure_as_smiles": "COc1ccc(C=NNC(=O)Cn2ccc(=O)c3ccccc32)cc1OC",
    "target": "Fusarium graminearum",
    "class_assignment": "criterion not met"
  },
  {
    "structure_as_smiles": "O=C(Cn1ccc(=O)c2ccccc21)NN=Cc1cc2ccccc2[nH]1",
    "target": "Fusarium graminearum",
    "class_assignment": "criterion not met"
  },
  {
    "structure_as_smiles": "O=C(Cn1ccc(=O)c2ccccc21)NN=Cc1ccc(F)cc1",
    "target": "Fusarium graminearum",
    "class_assignment": "criterion met"
  },
  {
    "structure_as_smiles": "O=C(Cn1ccc(=O)c2ccccc21)NN=Cc1ccc(Br)cc1",
    "target": "Fusarium graminearum",
    "class_assignment": "criterion not met"
  },
  {
    "structure_as_smiles": "O=C(Cn1ccc(=O)c2ccccc21)NN=Cc1ccc(C(F)(F)F)cc1",
    "target": "Fusarium graminearum",
    "class_assignment": "criterion not met"
  }
]

---

# inhibition at 50 µg/mL values compiled below
System: Fusarium graminearum
Assay: microbe, parasite or virus in culture
Type: cell-based
Conditions: read-out: Inhibition rate, Fg
measurement_kind: inhibition at 50 µg/mL (%)

[
  {
    "molecule": "O=C(Cn1ccc(=O)c2ccccc21)NN=Cc1ccccc1",
    "unit_label": "%",
    "number": 14.3
  },
  {
    "molecule": "O=C(Cn1ccc(=O)c2ccccc21)NN=Cc1cccs1",
    "unit_label": "%",
    "number": 9.5
  },
  {
    "molecule": "O=C(Cn1ccc(=O)c2ccccc21)NN=Cc1ccc([N+](=O)[O-])cc1",
    "unit_label": "%",
    "number": 7.1
  },
  {
    "molecule": "Cc1ccc(C=NNC(=O)Cn2ccc(=O)c3ccccc32)cc1",
    "unit_label": "%",
    "number": 14.3
  },
  {
    "molecule": "N#Cc1c(Cl)c(Cl)c(Cl)c(C#N)c1Cl [chlorothalonil, reference compound]",
    "unit_label": "%",
    "number": 73
  }
]

---

Test system: Bipolaris maydis
Type: cell-based
Conditions: read-out: Inhibition rate, Bm
Respond with class 1 for inhibition at 50 µg/mL values of 10% and above, class 0 for values below.

[
  {
    "structure_as_smiles": "O=C(Cn1ccc(=O)c2ccccc21)NN=Cc1coc2ccccc12",
    "class_assignment": "class 1"
  },
  {
    "structure_as_smiles": "CSc1ccc(C=NNC(=O)Cn2ccc(=O)c3ccccc32)cc1",
    "class_assignment": "class 1"
  },
  {
    "structure_as_smiles": "O=C(Cn1ccc(=O)c2ccccc21)NN=Cc1ccc(Br)cc1",
    "class_assignment": "class 0"
  },
  {
    "structure_as_smiles": "O=C(Cn1ccc(=O)c2ccccc21)NN=Cc1ccc(-n2cccn2)cc1",
    "class_assignment": "class 1"
  },
  {
    "structure_as_smiles": "COc1cccc(C=NNC(=O)Cn2ccc(=O)c3ccccc32)c1",
    "class_assignment": "class 1"
  },
  {
    "structure_as_smiles": "CN(C)c1ccc(C=NNC(=O)Cn2ccc(=O)c3ccccc32)cc1",
    "class_assignment": "class 1"
  },
  {
    "structure_as_smiles": "O=C(Cn1ccc(=O)c2ccccc21)NN=Cc1ccc(F)cc1",
    "class_assignment": "class 1"
  },
  {
    "structure_as_smiles": "COc1ccc(C=NNC(=O)Cn2ccc(=O)c3ccccc32)cc1OC",
    "class_assignment": "class 1"
  },
  {
    "structure_as_smiles": "CC(C)(C)c1ccc(C=NNC(=O)Cn2ccc(=O)c3ccccc32)cc1",
    "class_assignment": "class 0"
  },
  {
    "structure_as_smiles": "O=C(Cn1ccc(=O)c2ccccc21)NN=Cc1ccc(Cl)cc1",
    "class_assignment": "class 0"
  },
  {
    "structure_as_smiles": "O=C(Cn1ccc(=O)c2ccccc21)NN=Cc1ccc(C(F)(F)F)cc1",
    "class_assignment": "class 0"
  },
  {
    "structure_as_smiles": "O=C(Cn1ccc(=O)c2ccccc21)NN=Cc1cccnc1",
    "class_assignment": "class 1"
  },
  {
    "structure_as_smiles": "O=C(Cn1ccc(=O)c2ccccc21)NN=Cc1cccs1",
    "class_assignment": "class 1"
  }
]
